System: NCI-H226 lung
Test: NCI-60 one-dose screen, 48 h (100 = growth as untreated, 0 = no growth, -100 = all killed)
Conditions: 10 µM unless noted
This is part of a sample that, as a whole, favours compounds with a hit. Of some 83,000 tested, about 20% had one in any assay.
Endpoint name: growth (%)
One number for each entry, in %.

Solved entries (count: 2):
1) Cc1ccc(NC(=O)C(Cl)Cl)cc1 = 79.1
2) Cc1nc(-c2ccccc2)cc2c(O)c(C(=O)N/N=C/c3ccc(N(C)C)cc3)[nH]c(=O)c12 = 107

For every listed record, write down its growth.
1. COc1cc2c(=O)n(CCCn3ccnc3)c3c4cc5c(cc4ccc3c2cc1OC)OCO5
2. CS(=O)(=O)c1ccc(-c2nc3cc(Cl)ccc3n2CC(=O)N/N=C/c2ccc(Cl)cc2)cc1
3. COc1cc(-c2ncn(/C=C\c3nnco3)n2)cc(C(F)(F)F)c1
4. Nc1c(C(=O)c2ccc(Cl)s2)sc2nc3c(cc12)CCCC3

1: -42.5; 2: 84.8; 3: -0.243; 4: 96.6

For every listed record, write down its growth.
1. O=C1/C(=C/c2ccc([N+](=O)[O-])cc2)COc2ccc(O)c(O)c21
2. NC(=O)c1c(NC(=O)c2ccc(C(F)(F)F)cc2Cl)sc2c1CCC(=O)C2
3. CSc1nc(N)c(CNC(C)c2ccccc2)c(=O)n1C (stereo not drawn)
4. NS(=O)(=O)c1cnccc1-n1ccc(=O)c(S(N)(=O)=O)c1
5. O=C(NCOC(O)C(Cl)(Cl)Cl)NCOC(O)C(Cl)(Cl)Cl (stereo not drawn)

1. 50.9
2. -22.6
3. 91.4
4. 84.1
5. 95.7

For every listed record, write down its growth.
1. CC(=O)Nc1cccc(C2=CC(c3ccc(C)cc3)n3ncnc3N2)c1 (stereo not drawn)
2. CC1(C)N=C(N)N=C(N)N1c1cccc(CN)c1
3. CC(=O)Nc1ccc(-c2cc3c(NCc4ccc(F)cc4)ncnc3s2)cc1
4. COc1ccc(N(C)c2nc(Cl)nc3cnn(C)c23)cc1
5. CCOc1cccnc1/C=N/NC(N)=S
6. COc1cc2c(cc1OC)-c1ccc3cc4c(cc3c1N(CCCN(C)C)C2)OCO4

1: 92.7; 2: 92.7; 3: 78.4; 4: 1; 5: 53.9; 6: 57.6

For every listed record, write down its growth.
1. NS(=O)(=O)Oc1ccc(-c2sc3cc(O)ccc3c2C(=O)c2ccc(OCCN3CCCCC3)cc2)cc1
2. O=c1ccn(C2OC(F)(CO)C(O)C2F)c(=O)[nH]1 (stereo not drawn)
3. NC(=S)c1csc(CCNC(=O)c2ccccc2)n1
4. COc1cc2cc(Oc3ccc(NC(=O)Nc4cc(C(F)(F)F)cc(C(F)(F)F)c4)cc3)c(C)nc2cc1OCCN1CCCCC1
5. C=C(CNCCc1ccc(O)cc1)[C@@H]1CC[C@]2(COC3CCCCO3)CC[C@]3(C)[C@H](CC[C@@H]4[C@@]5(C)CCC(N)C(C)(C)[C@@H]5CC[C@]43C)[C@@H]12 (stereo partly drawn)

[79, 102, 116, 22.1, -59.1]

Param item = `CNC(=O)c1c(NC(=O)c2ccc(C(C)(C)C)cc2)sc2c1CCC(=O)C2` ; retrieve measured growth.
-2.45

Each recorded value in this set is attributed to PubChem BioAssay (NCI).
